- Test system: SN12C renal
- method: NCI-60 one-dose screen, 48 h
- assay conditions: 10 µM unless noted
Compounds without any hit were thinned out: in the full panel of roughly 83,000, 20% have a hit. The source made the active and inactive calls. How the source made its calls: active means growth percent below 10; inactive means the rest.
Respond only with the outcome that fits, drawn from 1 (yes) (active), 0 (no) (inactive)

GET /call?item= O=C(NCCCCCCNC(=O)OCc1ccc2c(Cl)cc(Cl)c(O)c2n1)OCc1ccc2c(Cl)cc(Cl)c(O)c2n1 returns the recorded outcome of this test.
1 (yes)

GET /call?item= C=C(C)[C@@H]1CC[C@]2(CO)CC[C@]3(C)[C@H](CC[C@@H]4[C@@](C)(CCCN)[C@H](C(=C)C)CC[C@]43C)[C@@H]12 returns the recorded outcome of this test.
1 (yes)

GET /call?item= Cc1ccc(S(=O)(=O)N2CCCN(c3nc(-c4ccccc4)nc4nc(-c5ccccc5)oc34)CC2)cc1 returns the recorded outcome of this test.
0 (no)

GET /call?item= c1cc(OCCCCCOc2cccc(-c3nc4ccccc4[nH]3)c2)cc(-c2nc3ccccc3[nH]2)c1 returns the recorded outcome of this test.
0 (no)

GET /call?item= CC(C)(C)c1ccc(S(=O)(=O)Oc2ccc(-c3sc4cc(OS(=O)(=O)c5ccc(C(C)(C)C)cc5)ccc4c3C(=O)c3ccc(OCCN4CCCCC4)cc3)cc2)cc1 returns the recorded outcome of this test.
0 (no)

GET /call?item= O=C(NCc1ccc(Cn2c(=O)sn(-c3ccccc3)c2=O)cc1)OCc1ccc2cccc(O)c2n1 returns the recorded outcome of this test.
1 (yes)

GET /call?item= COC(=O)/C=C1/SC(=Nc2ccc(F)cc2)N(CCc2c[nH]c3ccc(O)cc23)C1=O returns the recorded outcome of this test.
0 (no)

GET /call?item= COc1cc(N2C(=O)[C@H](Cl)C2c2ccc(SC)cc2)cc(OC)c1OC (stereo partly drawn) returns the recorded outcome of this test.
0 (no)
